Origin of measurements: the supplement of paper PMC10567573

B1: SNAP91 (parent)
chain: FSTDAFSSPPQGASPVPESSLTAD

- Variants of: B1
- TEST_PROTOCOL: protein stability index of a GFP-peptide fusion (GPS, HEK-293T) (PSI 1-6); higher = more stable;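 further: lentivirally expressed fusions sorted by FACS into six bins by GFP to DsRed ratio, PSI derived from sequencing read proportions per bin multiplied by bin number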
- CONDITIONS: c terminus: a fixed tail appended
PROPERTY_NAME: protein stability index
Numbers only.

Below: 5 variants and their reported protein stability index.
Item under review: `A23V` . Reported protein stability index?
2.96

Item under review: `D24E` . Reported protein stability index?
3.02

Item under review: `G12P` . Reported protein stability index?
2.93

Item under review: `S7L` . Reported protein stability index?
2.96

Item under review: `A13F` . Reported protein stability index?
2.54

Go through the items and report each one's protein stability index.
1. P17G
2. P9R

3.66
2.91

Go through the items and report each one's protein stability index.
1. T22E
2. V16I

1: 3.86; 2: 3.29
